molecular target: SCRIB_1, Q14160; experiment: holdup assay; parameters: key: below the threshold = too weak to quantify, mostly under pKd 3.1 to 4; details: plain residues with an end cap or a label only (N-terminal biotin on a linker: ado-ado)
Sequence (Q14160 718-814): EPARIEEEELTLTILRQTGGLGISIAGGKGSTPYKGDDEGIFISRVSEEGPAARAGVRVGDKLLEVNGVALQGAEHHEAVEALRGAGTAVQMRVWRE
Measured pKd values are reported for all entries that follow.
Number only, no unit.

TKDKVQETQI [LRRC4, Q9HBW1] ... 5.19
DYSNLRETDI [ADRA1D, P25100] ... 4.95
THREVKFTSL [CD46, P15529] ... 4.95
KSRPENGTVC [TMEM178B, H3BS89] ... 3.78

Query binder follows.
Ask: Could you share which pKd value was measured for EAVTVESTSL [SLC22A11, Q9NSA0] ?
Result: 4.56
